# Tested on: NS5A chimeric genotype 1b Con1 replicon with genotype 3a S52 strain NS5A gene
# method description: Replicon assay, genotype 3a NS5A chimera
# Type: cell-based, HCV
# condition details: Hepatitis C virus, read-out: 3a (s), (s); activity range
quantity name: EC50

molecule="COC(=O)N[C@H](C(=O)N1C[C@@H](C)C[C@H]1c1ncc(-c2ccc3c(c2)COc2cc4c(ccc5nc([C@@H]6CC[C@H](C)N6C(=O)[C@@H](NC(=O)OC)[C@@H](C)OC)[nH]c54)cc2-3)[nH]1)[C@@H](C)OC [DZ]" recorded_measurement="< 0.1 nM"
molecule="COC(=O)N[C@H](C(=O)N1[C@@H](C)CC[C@H]1c1ncc(-c2ccc3c(c2)COc2cc4c(ccc5nc([C@@H]6C[C@@H]7CCC[C@@H]7N6C(=O)[C@@H](NC(=O)OC)C6CCOCC6)[nH]c54)cc2-3)[nH]1)C(C)C [IA]" recorded_measurement="< 0.1 nM"

----------
Some molecules, each annotated with its measured EC50.
# System: NS5A chimeric genotype 2a JFH-1 replicon with genotype 2b MD2b-1 strain NS5A gene (M31 present)
# method description: Replicon assay, genotype 2b NS5A chimera
# Assay type: cell-based, HCV
# condition details: Hepatitis C virus, read-out: 2b (s) (nM), genotype 2b MD2b-1 NS5A chimeric replicon (M31), stably replicating replicon cells (s)
# Method: Evaluation of Cell-Based Anti-HCV Activity: Antiviral potency (EC50) was determined using a Renilla luciferase (RLuc)-based HCV replicon reporter assay. […] 72 hours later, cells were lysed and Renilla luciferase activity quantified as recommended by the manufacturer (Promega-Madison, Wis.). […]
quantity name: EC50 (nM)

chem_smiles=COC[C@H]1C[C@@H](c2ncc(-c3ccc4c(c3)COc3cc5c(ccc6nc([C@@H]7C[C@H](C)CN7C(=O)[C@@H](NC(=O)OC)[C@@H](C)OC)[nH]c65)cc3-4)[nH]2)N(C(=O)[C@@H](NC(=O)OC)[C@@H](C)OC)C1 quantity_name=EC50 value_unit=nM recorded_measurement=0.773
chem_smiles=CC[C@H]1C[C@@H](c2nc3ccc4cc5c(cc4c3[nH]2)OCc2cc(-c3cnc([C@@H]4CC[C@H](C)N4C(=O)[C@@H](NC(=O)OC)C(C)C)[nH]3)ccc2-5)N(C(=O)[C@@H](NC(=O)OC)[C@@H](C)OC)C1 quantity_name=EC50 value_unit=nM recorded_measurement=0.728
chem_smiles=COC(=O)N[C@H](C(=O)N1[C@@H](C)CC[C@H]1c1ncc(-c2ccc3c(c2)COc2cc4c(ccc5nc([C@@H]6CC[C@H](C)N6C(=O)[C@@H](NC(=O)OC)[C@@H](C)OC)[nH]c54)cc2-3)[nH]1)C(C)C quantity_name=EC50 value_unit=nM recorded_measurement=0.13
chem_smiles=CC[C@H](C)[C@H](NC(=O)OC)C(=O)N1[C@@H](C)CC[C@H]1c1ncc(-c2ccc3c(c2)COc2cc4c(ccc5nc([C@@H]6C[C@@H]7CCC[C@@H]7N6C(=O)[C@@H](NC(=O)OC)C6CCOCC6)[nH]c54)cc2-3)[nH]1 quantity_name=EC50 value_unit=nM recorded_measurement=0.074

----------
# Test system: NS5A chimeric genotype 2a JFH-1 replicon with genotype 2b MD2b-1 strain NS5A gene (M31 present)
# method description: Replicon assay, genotype 2b NS5A chimera
# Format: cell-based, HCV
# condition details: Hepatitis C virus, read-out: 2b (s) (nM), genotype 2b MD2b-1 NS5A chimeric replicon (M31), stably replicating replicon cells (s)
quantity name: EC50 (nM)

chem_smiles=COC(=O)N[C@H](C(=O)N1C[C@@H](C)C[C@H]1c1nc2ccc3cc4c(cc3c2[nH]1)OCc1cc(-c2cnc([C@@H]3CC[C@H](C)N3C(=O)[C@@H](NC(=O)OC)[C@@H](C)OC)[nH]2)ccc1-4)[C@@H](C)OC quantity_name=EC50 recorded_measurement=0.199
chem_smiles=COC(=O)N[C@H](C(=O)N1CCC[C@H]1c1ncc(-c2ccc3c(c2)COc2cc4c(ccc5nc([C@@H]6CCCN6C(=O)[C@@H](NC(=O)OC)[C@@H](C)OC)[nH]c54)cc2-3)[nH]1)[C@@H](C)OC quantity_name=EC50 recorded_measurement=0.733

----------
Each entry below carries its reported EC50.
# System: NS5A chimeric genotype 2a JFH-1 replicon with genotype 2b MD2b-1 strain NS5A gene (M31 present)
# method description: Replicon assay, genotype 2b NS5A chimera
# Format: cell-based, HCV
# condition details: Hepatitis C virus, read-out: 2b (s) (nM), genotype 2b MD2b-1 NS5A chimeric replicon (M31), stably replicating replicon cells (s)
quantity name: EC50 (nM)

compound="COC(=O)N[C@H](C(=O)N1[C@@H](C)CC[C@H]1c1ncc(-c2ccc3c(c2)COc2cc4c(ccc5nc([C@@H]6CC[C@H](C)N6C(=O)[C@@H](NC(=O)OC)[C@H](C)OC)[nH]c54)cc2-3)[nH]1)C(C)C [FK]" recorded_measurement=0.476
compound="COC(=O)N[C@H](C(=O)N1C[C@H]2C[C@H]2[C@H]1c1ncc(-c2ccc3c(c2)COc2cc4c(ccc5nc([C@@H]6CC[C@H](C)N6C(=O)[C@@H](NC(=O)OC)C(C)C)[nH]c54)cc2-3)[nH]1)C(C)C [HR]" recorded_measurement=2.18
compound="CC[C@H]1CC[C@@H](c2nc3ccc4cc5c(cc4c3[nH]2)OCc2cc(-c3cnc([C@@H]4CC[C@H](C)N4C(=O)[C@@H](NC(=O)OC)C(C)C)[nH]3)ccc2-5)N1C(=O)[C@@H](NC(=O)OC)[C@@H](C)OC [EP]" recorded_measurement=0.213
compound="COC(=O)N[C@H](C(=O)N1[C@@H](C)CC[C@H]1c1nc2ccc3cc4c(cc3c2[nH]1)OCc1cc(-c2cnc([C@@H]3C[C@H](C)CN3C(=O)[C@@H](NC(=O)OC)C3CCOCC3)[nH]2)ccc1-4)C(C)C [EJ]" recorded_measurement=0.112
compound="CC[C@H]1CC[C@@H](c2ncc(-c3ccc4c(c3)COc3cc5c(ccc6nc([C@@H]7CC[C@H](C)N7C(=O)[C@@H](NC(=O)OC)[C@@H](C)OC)[nH]c65)cc3-4)[nH]2)N1C(=O)[C@@H](NC(=O)OC)C1CCOCC1 [HY]" recorded_measurement=0.049
compound="CC[C@H]1CC[C@@H](c2ncc(-c3ccc4c(c3)COc3cc5c(ccc6nc([C@@H]7C[C@H](C)CN7C(=O)[C@@H](NC(=O)OC)C7CCOCC7)[nH]c65)cc3-4)[nH]2)N1C(=O)[C@@H](NC(=O)OC)C(C)C [HZ]" recorded_measurement=0.073
compound="COC(=O)N[C@H](C(=O)N1[C@@H](C)CC[C@H]1c1nc2ccc3cc4c(cc3c2[nH]1)OCc1cc(-c2cnc([C@@H]3[C@@H]5C[C@@H]5CN3C(=O)[C@@H](NC(=O)OC)C3CCOCC3)[nH]2)ccc1-4)C(C)C [HO]" recorded_measurement=0.639
compound="COC(=O)N[C@H](C(=O)N1[C@@H](C)CC[C@H]1c1nc2ccc3cc4c(cc3c2[nH]1)OCc1cc(-c2cnc([C@@H]3CC[C@H](C)N3C(=O)[C@@H](NC(=O)OC)[C@@H](C)O)[nH]2)ccc1-4)C(C)C [GY]" recorded_measurement=0.311
compound="COC(=O)N[C@H](C(=O)N1C[C@@H](F)C[C@H]1c1ncc(-c2ccc3c(c2)COc2cc4c(ccc5nc([C@@H]6CC[C@H](C)N6C(=O)[C@@H](NC(=O)OC)C(C)C)[nH]c54)cc2-3)[nH]1)C(C)C [HS]" recorded_measurement=3.37
compound="CCC[C@H](NC(=O)OC)C(=O)N1[C@@H](C)CC[C@H]1c1ncc(-c2ccc3c(c2)COc2cc4c(ccc5nc([C@@H]6CC[C@H](C)N6C(=O)[C@H](CCC)NC(=O)OC)[nH]c54)cc2-3)[nH]1 [HA]" recorded_measurement=5.42
compound="CC[C@H]1CC[C@@H](c2nc3ccc4cc5c(cc4c3[nH]2)OCc2cc(-c3cnc([C@@H]4CC[C@H](CC)N4C(=O)[C@@H](NC(=O)OC)C4CCOCC4)[nH]3)ccc2-5)N1C(=O)[C@@H](NC(=O)OC)C(C)C [II]" recorded_measurement=0.197
compound="CC[C@H]1CC[C@@H](c2ncc(-c3ccc4c(c3)COc3cc5c(ccc6nc([C@@H]7CC[C@H](C)N7C(=O)[C@@H](NC(=O)OC)C7CCOCC7)[nH]c65)cc3-4)[nH]2)N1C(=O)[C@@H](NC(=O)OC)[C@@H](C)CC [IM]" recorded_measurement=0.212
compound="COC(=O)NC(C(=O)N1[C@@H](C)CC[C@H]1c1nc2ccc3cc4c(cc3c2[nH]1)OCc1cc(-c2cnc([C@@H]3CC[C@H](C)N3C(=O)[C@@H](NC(=O)OC)C3CCOCC3)[nH]2)ccc1-4)C1CCOCC1 (some centres unmarked) [EB]" recorded_measurement=0.038
compound="COC[C@H]1C[C@@H](c2ncc(-c3ccc4c(c3)COc3cc5c(ccc6nc([C@@H]7CC[C@H](C)N7C(=O)[C@@H](NC(=O)OC)C(C)C)[nH]c65)cc3-4)[nH]2)N(C(=O)[C@@H](NC(=O)OC)C2CCOCC2)C1 [GI]" recorded_measurement=0.193
compound="COC(=O)N[C@H](C(=O)N1[C@@H](C)CC[C@H]1c1nc(Cl)c(-c2ccc3c(c2)COc2cc4c(ccc5nc([C@@H]6CC[C@H](C)N6C(=O)[C@@H](NC(=O)OC)[C@@H](C)OC)[nH]c54)cc2-3)[nH]1)[C@@H](C)OC [GB]" recorded_measurement=0.089
compound="COC(=O)N[C@H](C(=O)N1[C@@H](C)CC[C@H]1c1nc(C)c(-c2ccc3c(c2)COc2cc4c(ccc5nc([C@@H]6CC[C@H](C)N6C(=O)[C@@H](NC(=O)OC)[C@@H](C)OC)[nH]c54)cc2-3)[nH]1)[C@@H](C)OC [GD]" recorded_measurement=0.09
compound="CC[C@H]1CC[C@@H](c2nc3ccc4cc5c(cc4c3[nH]2)OCc2cc(-c3cnc([C@@H]4CC[C@H](C)N4C(=O)[C@@H](NC(=O)OC)C(C)C)[nH]3)ccc2-5)N1C(=O)[C@@H](NC(=O)OC)C1CCOCC1 [EO]" recorded_measurement=0.091
